Target: human Cereblon WT GST-tagged protein (Homo sapiens)
Construct: purchased CISBIO 64BDCRBNPEH
Sequence (Q96SW2 whole entry): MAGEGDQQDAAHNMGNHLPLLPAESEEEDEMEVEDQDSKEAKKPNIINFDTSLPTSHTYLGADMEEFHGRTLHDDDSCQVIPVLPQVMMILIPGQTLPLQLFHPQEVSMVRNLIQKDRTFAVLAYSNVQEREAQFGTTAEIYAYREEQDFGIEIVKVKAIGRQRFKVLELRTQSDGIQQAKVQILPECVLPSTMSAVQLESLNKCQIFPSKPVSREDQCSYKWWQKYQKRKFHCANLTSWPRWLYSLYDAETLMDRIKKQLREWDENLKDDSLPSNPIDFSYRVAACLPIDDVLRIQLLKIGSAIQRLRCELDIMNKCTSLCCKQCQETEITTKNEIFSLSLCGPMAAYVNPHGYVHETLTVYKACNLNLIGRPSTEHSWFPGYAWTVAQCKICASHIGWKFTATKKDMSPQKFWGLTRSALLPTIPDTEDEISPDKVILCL
Test: CRBN-binding affinity by HTRF (CEREBLON BINDING kit)
Conditions: HTRF inhibitory activity, CEREBLON BINDING kit; read-out: HTRF IC50
Attribute: IC50

>  <compound>
Cc1sc2ncnc(C3=CCN(Cc4ccc5c(c4)CN(C4CCC(=O)NC4=O)C5=O)CC3)c2c1C (centres unmarked)

>  <IC50>
< 500 nM

$$$$
>  <compound>
O=C1CCC(N2Cc3cc(CN4CCN(c5nc(N6CCNCC6)c6sccc6n5)CC4)ccc3C2=O)C(=O)N1 (centres unmarked)

>  <IC50>
500 to 1000 nM

$$$$
>  <compound>
Cc1ccsc1C1CCN(Cc2ccc3c(c2)CN(C2CCC(=O)NC2=O)C3=O)CC1 (centres unmarked)

>  <IC50>
500 to 1000 nM

$$$$
>  <compound>
O=C1CCC(N2Cc3c(ccc(CN4CCN(c5cccc(Cl)c5Cl)CC4)c3F)C2=O)C(=O)N1 (centres unmarked)

>  <IC50>
500 to 1000 nM

$$$$
>  <compound>
O=C1CCC(N2Cc3cc(CN4CCN(c5cnccn5)CC4)ccc3C2=O)C(=O)N1 (centres unmarked)

>  <IC50>
500 to 1000 nM

$$$$

All values here come from patent EP4745137A1.
